Where do these numbers come from? They come from patent EP0693481A1.

experiment: Hydrolisis rate of prodrug in whole rat blood (Franz-type cell, phenytoin measured by HPLC); type: in vitro ADME; settings: rat, whole blood, whole rat blood, 37 °C, prodrug 40 µg/ml, time 0.33 min, replicate 3; read-out: % HYDROLISIS IN WHOLE BLOOD
Structures can show the parent of a compound that is named as a salt.

# compound, readout unit, metabolised at 20 s
rows = [
    ("CN1CCN(CC(=O)OCN2C(=O)NC(c3ccccc3)(c3ccccc3)C2=O)CC1 [IX, dihydrochloride]", "%", 126),
]

====

test: Hydrolisis rate of prodrug in whole rat blood (Franz-type cell, phenytoin measured by HPLC); assay type: in vitro ADME; conditions: rat, whole blood, whole rat blood, 37 °C, prodrug 40 µg/ml, time 1.5 min, mean of replicates; read-out: % HYDROLISIS IN WHOLE BLOOD, m ± s.d.
Structures can show the parent of a compound that is named as a salt.
endpoint label: metabolised at 0.025 h (%)

# compound, experimental result
data = [
    ("CN1CCN(CC(=O)OCN2C(=O)NC(c3ccccc3)(c3ccccc3)C2=O)CC1 [IX, dihydrochloride]", 104),
]

====

experiment: Hydrolisis rate of prodrug in whole rat blood (Franz-type cell, phenytoin measured by HPLC); assay type: in vitro ADME; details: rat, whole blood, whole rat blood, 37 °C, time 7.00 min, replicate 2; read-out: % HYDROLISIS IN WHOLE BLOOD

# molecule, metabolised at 7 min [%]
data = [
    ("O=C1NC(c2ccccc2)(c2ccccc2)C(=O)N1COP(=O)(O)O [XI]", 32),
]

====

assay: Hydrolisis rate of prodrug in whole rat blood (Franz-type cell, phenytoin measured by HPLC); format: in vitro ADME; conditions: rat, whole blood, whole rat blood, 37 °C, prodrug 40 µg/ml, time 0.33 min, mean of replicates; read-out: % HYDROLISIS IN WHOLE BLOOD, m ± s.d.
Counter-ions that a name gives are not always drawn.
endpoint label: metabolised at 20 s (%)

# compound, experimental result
records = [
    ("CN1CCN(CC(=O)OCN2C(=O)NC(c3ccccc3)(c3ccccc3)C2=O)CC1 [IX, dihydrochloride]", 102),
]

====

List of metabolised at 0.5 min values.
experiment: Hydrolisis rate of prodrug in whole rat blood (Franz-type cell, phenytoin measured by HPLC); assay type: in vitro ADME; conditions: rat, whole blood, whole rat blood, 37 °C, prodrug 40 µg/ml, time 0.50 min, replicate 2; read-out: % HYDROLISIS IN WHOLE BLOOD
Where a name gives a salt, the structure may show the parent alone.

# compound, metabolised at 0.5 min / %
data = [
    ("O=C1NC(c2ccccc2)(c2ccccc2)C(=O)N1COP(=O)(O)O", 7.41),
    ("CN1CCN(CC(=O)OCN2C(=O)NC(c3ccccc3)(c3ccccc3)C2=O)CC1 [IX, dihydrochloride]", 96.5),
]

====

Assay: Hydrolisis rate of prodrug in whole rat blood (Franz-type cell, phenytoin measured by HPLC)
Format: in vitro ADME
Conditions: rat, whole blood, whole rat blood, 37 °C, prodrug 40 µg/ml, time 5.0 min, replicate 1; read-out: % HYDROLISIS IN WHOLE BLOOD
Experimental: To study the hydrolisis of prodrugs in blood, Franz-type permeation cells of the company Crown Glass Co. Somerville, N.Y. have been used. The receiving compartment is used which allows for water recirculation using a glass packet in order to keep the system at 37 °C. […] After anesthesizing the rat, blood was drawn by cardiac puncture. […] The system was kept at 37 °C and stirred magnetically, samples were taken (1 ml) and phenytoin was measured in each of them by HPLC. […]
Counter-ions that a name gives are not always drawn.

# molecule, metabolised at 5 min (%)
rows = [
    ("CN1CCN(CC(=O)OCN2C(=O)NC(c3ccccc3)(c3ccccc3)C2=O)CC1 [IX, dihydrochloride]", 105),
]
